meta.source: patent US12540128B2

Entries and their measured percentage damage caused to the plant, five point scale, LOLPE follow.
Test system: Lolium perenne (LOLPE)
Test: B3 Pre-Emergence Efficacy Test 1
Assay type: in vivo
Conditions: 250 g/ha, after 13 days

{"compound": "Cc1ccc2cc(/C=C/c3c(Cl)ccc(F)c3-c3c(O)c(C)nn(C)c3=O)ccc2n1 [Compound 2.034]", "reported": "1 (1=0-19%)"}
{"compound": "Cc1nn(C)c(=O)c(-c2c(F)ccc(Cl)c2/C=C/c2ccc3c(c2)OC(F)(F)O3)c1OC(=O)C(C)C [Compound 4.342]", "reported": 0}
{"compound": "Cc1nn(C)c(=O)c(-c2c(F)ccc(Cl)c2CCc2ccc3c(c2)CCCN3)c1O [Compound 1.019]", "reported": "3 (3=40-59%)"}
{"compound": "CCc1nc2ccc(CCc3c(Cl)ccc(F)c3-c3c(O)c(C)nn(C)c3=O)cc2o1 [Compound 1.028]", "reported": "5 (5=80-100%)"}
{"compound": "Cc1nn(C)c(=O)c(-c2c(F)ccc(Cl)c2CCc2ccc3c(c2)CCC(C)N3)c1OC(=O)C(C)C (stereo not drawn) [Compound 3.030]", "reported": "5 (5=80-100%)"}
{"compound": "Cc1ccc2cc(CCc3c(Cl)ccc(F)c3-c3c(OC(=O)C(C)C)c(C)nn(C)c3=O)ccc2n1 [Compound 3.034]", "reported": "5 (5=80-100%)"}
{"compound": "Cc1ccc2cc(/C=C/c3c(Cl)ccc(F)c3-c3c(OC(=O)C(C)C)c(C)nn(C)c3=O)ccc2n1 [Compound 4.034]", "reported": 0}
{"compound": "Cc1nn(C)c(=O)c(-c2c(F)ccc(Cl)c2CCc2ccnc3ccccc23)c1O [Compound 1.036]", "reported": "5 (5=80-100%)"}

Lookup: percentage damage caused to the plant, five point scale, LOLPE lookup needed for Cc1nn(C)c(=O)c(-c2c(F)ccc(Cl)c2CCc2cc(C(F)(F)F)nc3ccccc23)c1O [Compound 1.027] , thanks.
Found: 3 (3=40-59%)

* * *

Tested on: Zea Mays (ZEAMX)
Experiment: B2 Post-Emergence Efficacy Test 2
Format: in vivo
Details: 250 g/ha, after 13 days
readout-name: percentage damage caused to the plant, five point scale, ZEAMX

Lookup: Please state recorded percentage damage caused to the plant, five point scale, ZEAMX (tested on Zea Mays (ZEAMX)) of Cc1nn(C)c(=O)c(-c2c(F)ccc(Cl)c2CCc2ccc3ccccc3c2)c1O [Compound 1.053]
Found: 4 (4=60-79%)

Lookup: Please state recorded percentage damage caused to the plant, five point scale, ZEAMX (tested on Zea Mays (ZEAMX)) of Cc1nn(C)c(=O)c(-c2c(F)ccc(Cl)c2CCc2ccc3sccc3c2)c1O [Compound 1.348]
Found: 4 (4=60-79%)

Lookup: Please state recorded percentage damage caused to the plant, five point scale, ZEAMX (tested on Zea Mays (ZEAMX)) of Cc1nn(C)c(=O)c(-c2c(F)ccc(Cl)c2CCc2ccc3occc3c2)c1O [Compound 1.346]
Found: 2 (2=20-39%)

Lookup: Please state recorded percentage damage caused to the plant, five point scale, ZEAMX (tested on Zea Mays (ZEAMX)) of Cc1nn(C)c(=O)c(-c2c(F)ccc(Cl)c2CCc2ccc3cnn(C)c3c2)c1O [Compound 1.353]
Found: 3 (3=40-59%)

Lookup: Please state recorded percentage damage caused to the plant, five point scale, ZEAMX (tested on Zea Mays (ZEAMX)) of Cc1nn(C)c(=O)c(-c2c(F)ccc(Cl)c2CCc2nc3ccccc3o2)c1O [Compound 1.359]
Found: 1 (1=0-19%)

Lookup: Please state recorded percentage damage caused to the plant, five point scale, ZEAMX (tested on Zea Mays (ZEAMX)) of Cc1nn(C)c(=O)c(-c2c(F)ccc(Cl)c2CCc2ccc3c(c2)OC(C)(C)C3)c1O [Compound 1.340]
Found: 5 (5=80-100%)
